Measured values drawn from ChEMBL document CHEMBL5143520 for this set.

Test Protocol: Selectivity index, ratio of CC50 for cytotoxicity against MDCK cells to EC50 for antiviral activity against Influenza A virus A/WSN/33(H1N1) infected in MDCK cells
Type: toxicity, cell-based
Assay Setup: dog, read-out: Ratio CC50/EC50
Listing: selectivity ratio of selected compounds

Mol Smiles	selectivity ratio
O=CN1[C@H](C(=O)Oc2ccccc2)Cc2cc(O)c(O)cc2[C@@H]1Cc1ccc(O)c(O)c1	10.2
O=CN1[C@H](C(=O)Oc2c(Cl)cccc2Cl)Cc2cc(O)c(O)cc2[C@@H]1Cc1ccc(O)c(O)c1	9.6
COC(=O)[C@@H]1Cc2cc(O)c(O)cc2[C@H](Cc2ccc(O)c(O)c2)N1C(=O)C(F)(F)F	11.3
COC(=O)[C@@H]1Cc2cc(O)c(O)cc2[C@H](Cc2ccc(O)c(O)c2)N1C(=O)CCl	5.3

* * *

Reported values of CC50 at 48 h for individual entries
Test Protocol: Cytotoxicity against MDCK cells assessed as reduction in cell viability incubated for 48 hrs by MTT assay
Assay type: toxicity, cell-based, Canis lupus familiaris
Assay Setup: dog

Mol Smiles	CC50 at 48 h
COc1ccc(NC(=O)[C@@H]2Cc3cc(O)c(O)cc3[C@H](Cc3ccc(O)c(O)c3)N2C=O)cc1	50.9 µM
O=CN1[C@H](C(=O)NCc2cccs2)Cc2cc(O)c(O)cc2[C@@H]1Cc1ccc(O)c(O)c1	> 100 µM
O=CN1[C@H](C(=O)Nc2ccc(Cl)cc2)Cc2cc(O)c(O)cc2[C@@H]1Cc1ccc(O)c(O)c1	> 100 µM
O=CN1[C@H](C(=O)Nc2ccccc2)Cc2cc(O)c(O)cc2[C@@H]1Cc1ccc(O)c(O)c1	> 100 µM
O=CN1[C@H](C(=O)Oc2cccc(Cl)c2)Cc2cc(O)c(O)cc2[C@@H]1Cc1ccc(O)c(O)c1	84.3 µM
O=CN1[C@H](C(=O)NCc2ccccc2)Cc2cc(O)c(O)cc2[C@@H]1Cc1ccc(O)c(O)c1	> 100 µM
CCC(=O)N1[C@H](C(=O)OC)Cc2cc(O)c(O)cc2[C@@H]1Cc1ccc(O)c(O)c1	> 100 µM
CN(C)C(=O)[C@@H]1Cc2cc(O)c(O)cc2[C@H](Cc2ccc(O)c(O)c2)N1C=O	> 100 µM

* * *

Recorded CC50 at 48 h, one value per entry.
Test Protocol: Cytotoxicity against MDCK cells assessed as reduction in cell viability incubated for 48 hrs by MTT assay
Format: toxicity, cell-based, Canis lupus familiaris
Assay Setup: dog

Mol Smiles	Comparator	CC50 at 48 h [µM]
COC(=O)[C@@H]1Cc2cc(O)c(O)cc2[C@H](Cc2ccc(O)c(O)c2)N1C(=O)CCl	=	34.5
O=CN1[C@H](C(=O)Oc2ccc(Cl)cc2Cl)Cc2cc(O)c(O)cc2[C@@H]1Cc1ccc(O)c(O)c1	=	21.4
CCCC(=O)N1[C@H](C(=O)OC)Cc2cc(O)c(O)cc2[C@@H]1Cc1ccc(O)c(O)c1	>	100
O=CN1[C@H](C(=O)O)Cc2cc(O)c(O)cc2[C@@H]1Cc1ccc(O)c(O)c1	>	100
O=CN1[C@H](C(=O)Oc2c(Cl)cccc2Cl)Cc2cc(O)c(O)cc2[C@@H]1Cc1ccc(O)c(O)c1	=	24.8
O=CN1[C@H](C(=O)Oc2ccc(Cl)cc2)Cc2cc(O)c(O)cc2[C@@H]1Cc1ccc(O)c(O)c1	=	57.6
